SYSTEM UNDER TEST: T1, human GIPR (human, UniProt P48546 22-466)
T1 sequence (looked up): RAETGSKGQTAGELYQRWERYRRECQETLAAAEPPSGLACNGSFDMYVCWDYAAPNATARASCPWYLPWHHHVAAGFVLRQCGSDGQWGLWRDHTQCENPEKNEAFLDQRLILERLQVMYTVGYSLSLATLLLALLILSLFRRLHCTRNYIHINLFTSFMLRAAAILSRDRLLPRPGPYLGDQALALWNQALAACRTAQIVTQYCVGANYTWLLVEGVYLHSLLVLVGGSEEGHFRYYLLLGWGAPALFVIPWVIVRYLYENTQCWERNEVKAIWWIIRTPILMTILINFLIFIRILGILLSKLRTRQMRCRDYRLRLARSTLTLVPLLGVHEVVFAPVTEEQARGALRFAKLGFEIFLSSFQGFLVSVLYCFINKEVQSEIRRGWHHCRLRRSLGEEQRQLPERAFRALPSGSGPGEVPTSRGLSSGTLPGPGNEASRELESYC
PROCEDURE SUMMARY: cell-based or functional assay
Bridges are numbered along the chain shown (N, C = ends). Where no end group is shown, it is not given here. [ ]: non-standard residue; d: D form. staple K5 = not defined here; staple K6 = not defined here; staple K9 = not defined here; Aib = CC(C)(N)C(=O)O
Overview of reported EC50 cAMP 0% FBS across a group of binders:
Field note: include the unit after the figure.

Y[Aib]EGTFTSDYSIYKDKQAA[Aib]KFVNWLLAGGPSSGAPPPS (linker 14-21 via staple K6; reading uncertain) [Conjugate 151] | 20 pM
YXEGTFTSDYSIYLDKKAAXEFVKWLLAGGPSSGAPPPS (staple K5 on Lys 17, 24; Aib 2, 20) [Conjugate 139] | 2.6 pM
Y[Aib]EGTFTSDYSIYLDKKAQ[Aib]AFVKWLIAQGPSSGAPPPS (linker 17-24 via staple K5; reading uncertain) [Conjugate 163] | 50 pM
YXEGTFTSDYSIYLDKKAAXEFVKWLLAGGPSSGAPPPS (staple K4 on Lys 17, 24; Aib 2, 20) [Conjugate 140] | 2.8 pM

Please give the measured EC50 cAMP 0% FBS for this binder: Y[Aib]EGTFTSDYSIYLDKKAA[Aib]EFVKWLLAGGPSSGAPPPS (linker 17-24 via staple K9; reading uncertain) [Conjugate 143] 2 pM

Cited source: patent US20230071371A1
